Where do these numbers come from? They come from PubChem BioAssay (EPA / NIEHS).

Target: rat Adrenergic Receptor, Alpha 2 (Adra2), Non-selective Binding, Adra2a (gene 25083)
Test: NVS_GPCR_rAdra2_NonSelective: NovaScreen (NVS) G Protein-Coupled Receptor Assay for rat Adrenergic Receptor, Alpha 2 (Adra2), Non-selective Binding (AID 2283299)
Records with an inconclusive call do not appear. Active and inactive are the calls of the source. The calls were made as follows: active = hit-call score of the fitted dose curve at least 0.9, where 1 is the maximum; inconclusive = response in the unintended direction; inactive = score below 0.9.
reported.metric: AC50

Past entries and their recorded results:
| mol.smiles | measured.on | AC50 |
| --- | --- | --- |
| Clc1cc(Cl)c2c(c1)N=C1CCCCCN1C2 | rat Adrenergic Receptor, Alpha 2 (Adra2), Non-selective Binding, Adra2a (gene 25083) | 1.57 µM (active) |
| CCN(CC)C(=O)c1cc(S(=O)(=O)Cc2ccccc2)c(N2CCC(c3ccccc3)CC2)cc1N(CC)CCN(C)C | rat Adrenergic Receptor, Alpha 2 (Adra2), Non-selective Binding, Adra2a (gene 25083) | 15.2 µM (active) |
| CCCCCCCCCCCC[N+](C)(C)C | rat Adrenergic Receptor, Alpha 2 (Adra2), Non-selective Binding, Adra2a (gene 25083) | 19.1 µM (active) |

Give its AC50 value. Item: CCN(Cc1cccnc1)C(=O)c1cccc(Cl)c1[C@]1(C)C(=O)N(Cc2ccc(OC)cc2OC)c2ccc(Cl)cc21
6.92 µM (active)

---

Read-out: Hypoxia-inducible factor 1-alpha (Homo sapiens) (UniProt Q16665)
Sequence (Q16665 whole entry, looked up): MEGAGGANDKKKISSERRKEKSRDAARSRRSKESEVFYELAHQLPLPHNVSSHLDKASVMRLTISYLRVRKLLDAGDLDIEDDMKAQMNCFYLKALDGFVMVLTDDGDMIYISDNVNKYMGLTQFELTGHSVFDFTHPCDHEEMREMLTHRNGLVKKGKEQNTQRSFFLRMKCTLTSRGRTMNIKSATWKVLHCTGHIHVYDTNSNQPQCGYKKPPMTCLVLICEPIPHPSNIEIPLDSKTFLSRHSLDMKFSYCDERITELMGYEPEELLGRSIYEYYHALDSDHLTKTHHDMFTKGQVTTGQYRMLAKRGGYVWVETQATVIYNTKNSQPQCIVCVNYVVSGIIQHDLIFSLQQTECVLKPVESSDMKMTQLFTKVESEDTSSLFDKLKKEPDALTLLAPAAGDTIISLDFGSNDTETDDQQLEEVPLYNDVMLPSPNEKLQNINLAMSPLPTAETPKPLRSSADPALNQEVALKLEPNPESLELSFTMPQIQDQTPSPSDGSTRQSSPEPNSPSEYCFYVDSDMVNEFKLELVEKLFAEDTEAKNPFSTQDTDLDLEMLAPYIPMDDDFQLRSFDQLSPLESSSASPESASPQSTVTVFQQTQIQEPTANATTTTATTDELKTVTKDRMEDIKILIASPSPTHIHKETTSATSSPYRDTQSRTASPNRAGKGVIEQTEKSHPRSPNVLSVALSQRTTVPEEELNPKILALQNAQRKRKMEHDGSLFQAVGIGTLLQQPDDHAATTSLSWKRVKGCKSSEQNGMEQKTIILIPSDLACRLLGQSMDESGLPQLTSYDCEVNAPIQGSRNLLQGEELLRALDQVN
Assay: LTEA_HepaRG_HIF1A: Life Technologies and Expression Analysis (LTEA) Assay for Hypoxia-inducible factor 1 (HIF1A) Trancription factor using HepaRG (AID 2283503);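 also: HIF1A transcript by TaqMan qRT-PCR normalized to ACTB GAPDH and POLR2A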
Details: mRNA level, 48 h; actives raise or lower the signal
The source made the active and inactive calls. Rule for the calls: active = hit-call score of the fitted dose curve at least 0.9, where 1 is the maximum; inactive = score below 0.9.
Permitted responses: yes (1) (active), no (0) (inactive)

Recorded results for 3 molecules are shown here.
| mol.smiles | classification |
| --- | --- |
| CCN(Cc1cccc(S(=O)(=O)O)c1)c1ccc(C(=C2C=CC(=[N+](CC)Cc3cccc(S(=O)(=O)O)c3)C=C2)c2ccccc2S(=O)(=O)[O-])cc1 | no (0) |
| COc1cc(C(=O)NC2CCN(C)CC2)ccc1Nc1ncc2c(n1)N(C1CCCC1)CC(F)(F)C(=O)N2C | no (0) |
| Cc1c2ccccc2c(C)c2c1ccc1ccccc12 | yes (1) |

Alright, here's another molecule for you.
Which outcome was assigned to CCCCOC(=O)CC(CC(=O)OCCCC)(OC(C)=O)C(=O)OCCCC in this test?
no (0)

---

Assay: CCTE_Simmons_MITO_max_resp_rate: CCTE's HepG2 Seahorse XF Respirometric Screening Assay at Maximal Respiratory State [uncoupled], Simmons Lab (AID 2284002)
Conditions: actives raise or lower the signal
Calls of active or inactive are those of the source. How the source made its calls: active means hit-call score of the fitted dose curve at least 0.9, where 1 is the maximum; inactive means score below 0.9.
Permitted responses: 1 (yes) for active, 0 (no) for inactive

Recorded results for 5 compounds are shown here.
| mol.smiles | classification |
| --- | --- |
| NCc1cccc(C2CCN(C(=O)c3ccc(C#Cc4ccccc4F)o3)CC2)c1 | 1 (yes) |
| CCCCCCCCCC(=O)O | 0 (no) |
| CC(=O)N1CCN(c2ccc(OC[C@H]3CO[C@](Cn4ccnc4)(c4ccc(Cl)cc4Cl)O3)cc2)CC1 | 1 (yes) |
| O=C1CCC(C2CCCCC2)CC1 | 0 (no) |
| CN(C)c1ccc(C(=C2C=CC(=[N+](C)C)C=C2)c2ccc(N(C)C)cc2)cc1 | 1 (yes) |

Alright, here's another compound for you.
Which outcome was assigned to Cc1cc2c(cc1C(F)(F)F)N(C(=O)Nc1ccc(Oc3cccnc3C)nc1)CC2 in this test?
1 (yes)

---

Read-out: Interleukin-8 (IL8), CXCL8 (gene 3576)
Test: BSK_SAg_IL8: BioMAP Diversity Plus: SAg Assay for Interleukin-8 (IL8) Biomarker Activity (AID 2283094)
Conditions: primary human HUVEC with PBMC; actives raise or lower the signal
The source made the active and inactive calls. How the source made its calls: active means hit-call score of the fitted dose curve at least 0.9, where 1 is the maximum; inactive means score below 0.9.
reported.metric: AC50

| mol.smiles | AC50 |
| --- | --- |
| Oc1ccccc1 | inactive |
| CN(C)c1ccc(C(=C2C=CC(=[N+](C)C)C=C2)c2ccc(N(C)C)cc2)cc1 | 0.148 µM (active) |
| CC[C@H](NC(=O)c1cc(F)ccc1NS(=O)(=O)c1cccc2cccnc12)c1ccccc1 | 8.99 µM (active) |
| Cc1cccc2ccccc12 | inactive |
| C[C@]12CC[C@@H]3c4ccc(O)cc4CC[C@H]3[C@@H]1CC[C@H]2O | inactive |

For each of the items listed, what is its AC50?
1. O=C(Nc1ccc(Cl)cc1)Nc1ccc(Cl)c(Cl)c1
2. Cc1c2ccccc2c(C)c2c1ccc1ccccc12
3. CCCCCCCCOc1ccc(C(=O)c2ccccc2)c(O)c1
4. CN1C(=O)CC[C@H]1c1cccnc1
5. O=C(O)c1ccccc1C(=O)OCc1ccccc1
6. CC(C)(c1cc(Br)c(O)c(Br)c1)c1cc(Br)c(O)c(Br)c1
7. COc1cccc([C@H](O)C2CCN(CCc3ccc(F)cc3)CC2)c1OC

2.29 µM (active)
26.4 µM (active)
inactive
inactive
inactive
30.4 µM (active)
inactive

---

Biological target: rat Serotonin Transporter (SERT), Slc6a4 (gene 25553) (UniProt P31652)
Sequence (P31652 whole entry, looked up): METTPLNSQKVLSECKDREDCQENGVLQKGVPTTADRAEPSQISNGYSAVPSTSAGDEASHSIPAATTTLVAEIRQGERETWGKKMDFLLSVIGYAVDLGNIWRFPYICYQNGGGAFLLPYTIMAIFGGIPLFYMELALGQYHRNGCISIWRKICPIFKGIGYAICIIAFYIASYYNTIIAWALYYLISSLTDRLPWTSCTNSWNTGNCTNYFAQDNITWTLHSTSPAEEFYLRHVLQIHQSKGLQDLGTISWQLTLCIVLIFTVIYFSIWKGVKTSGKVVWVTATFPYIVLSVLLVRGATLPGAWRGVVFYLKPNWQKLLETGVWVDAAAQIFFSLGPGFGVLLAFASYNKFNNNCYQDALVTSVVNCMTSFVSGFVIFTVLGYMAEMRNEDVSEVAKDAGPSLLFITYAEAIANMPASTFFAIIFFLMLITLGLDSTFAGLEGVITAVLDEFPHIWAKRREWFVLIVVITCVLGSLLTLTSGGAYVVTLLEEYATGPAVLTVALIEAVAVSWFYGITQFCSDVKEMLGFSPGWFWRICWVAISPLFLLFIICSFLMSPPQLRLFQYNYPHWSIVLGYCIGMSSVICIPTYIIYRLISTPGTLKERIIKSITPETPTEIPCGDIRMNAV
Assay: NVS_TR_rSERT: NovaScreen (NVS) Transporter Assay for rat Serotonin Transporter (SERT) (AID 2283375)
Records with an inconclusive call do not appear. Activity calls are given as the source filed them. How the source made its calls: active means hit-call score of the fitted dose curve at least 0.9, where 1 is the maximum; inconclusive means response in the unintended direction; inactive means score below 0.9.
reported.metric: AC50

Past entries and their recorded results:
| mol.smiles | AC50 |
| --- | --- |
| COc1cccc([C@H](O)C2CCN(CCc3ccc(F)cc3)CC2)c1OC | 8.09 µM (active) |
| Oc1ccc2ccccc2c1 | 8.73 µM (active) |
| CN(C)c1ccc(C(=C2C=CC(=[N+](C)C)C=C2)c2ccc(N(C)C)cc2)cc1 | 7.04 µM (active) |
| NCc1cccc(C2CCN(C(=O)c3ccc(C#Cc4ccccc4F)o3)CC2)c1 | 16.7 µM (active) |
| O=C1c2ccccc2C(=O)N1CCc1noc(-c2ccc(CN3CCCCCC3)s2)n1 | 9.05 µM (active) |
| c1ccc(C[n+]2cccc3ccccc32)cc1 | 6.24 µM (active) |

Then there is this molecule:
Give its AC50 value. Item: C[C@]12CC[C@@H]3c4ccc(O)cc4CC[C@H]3[C@@H]1CCC2=O
4.96 µM (active)

---

Assay: APR_HepG2_NuclearSize_24hr: Apredica 24-hour HepG2 Assay for Nuclear Size (AID 2282907)
Conditions: high-content imaging, actives raise or lower the signal
Calls of active or inactive are those of the source. The calls were made as follows: active = hit-call score of the fitted dose curve at least 0.9, where 1 is the maximum; inactive = score below 0.9.
Permitted responses: active, inactive

| mol.smiles | classification |
| --- | --- |
| Cc1cc(F)ccc1-c1cc(N2CC[C@@H](O)[C@H]2CO)ncc1N(C)C(=O)C(C)(C)c1cc(C(F)(F)F)cc(C(F)(F)F)c1 | inactive |
| CCCCCCCCCC(=O)O | inactive |
| c1ccc(C[n+]2cccc3ccccc32)cc1 | inactive |
| O=C1CCC(C2CCCCC2)CC1 | inactive |

Which outcome was assigned to O=c1[nH]sc2ccccc12 in this test?
inactive

Which outcome was assigned to Oc1ccc2ccccc2c1 in this test?
inactive

Which outcome was assigned to O=C(O)c1ccccc1C(=O)OCc1ccccc1 in this test?
inactive

Which outcome was assigned to Cc1oc2c(NC(=O)c3c(Cl)cccc3Cl)cccc2c1C(C)(C)O in this test?
inactive

Which outcome was assigned to O=c1c(-c2ccc(O)cc2)coc2cc(O)cc(O)c12 in this test?
inactive

Which outcome was assigned to O=C(Nc1ccc(Cl)cc1)Nc1ccc(Cl)c(Cl)c1 in this test?
inactive

---

Assay: APR_HepG2_MitoticArrest_72hr: Apredica 72-hour HepG2 Assay for Mitotic Arrest (AID 2282918)
Conditions: high-content imaging, actives raise or lower the signal
Method: APR_HepG2_72hr is a cell-based, multiplexed-readout assay that uses HepG2, a human liver cell line, with measurements taken at 72 hours after chemical dosing in a 384-well plate.APR_HepG2_MitoticArrest_72hr is one of 10 assay component(s) measured or calculated from the APR_HepG2_72hr assay. […] This assay endpoint, APR_HepG2_MitoticArrest_72hr, was analyzed with bidirectional fitting relative to DMSO as the negative control and baseline of activity. […]
Calls of active or inactive are those of the source. Rule for the calls: active = hit-call score of the fitted dose curve at least 0.9, where 1 is the maximum; inactive = score below 0.9.
Permitted responses: active, inactive

Recorded results for 5 compounds are shown here.
| mol.smiles | classification |
| --- | --- |
| CC(C)(C)c1cc(/C=C2\SC(N)=NC2=O)cc(C(C)(C)C)c1O | active |
| CCCCCCCCOc1ccc(C(=O)c2ccccc2)c(O)c1 | inactive |
| O=c1[nH]sc2ccccc12 | active |
| O=C(OCCCCCCOC(=O)c1ccccc1)c1ccccc1 | inactive |
| CC1(C)NC(=O)N(c2ccc([N+](=O)[O-])c(C(F)(F)F)c2)C1=O | inactive |

Alright, here's another compound for you.
Which outcome was assigned to O=C(O)c1ccccc1-n1cc(C(=O)O)c(=O)c2cc(Nc3c(F)cc(F)cc3Cl)c(Cl)cc21 in this test?
inactive
